pKi: −log10 of the molar value.
// compounds with reported pKi on 5-hydroxytryptamine receptor 1A (Homo sapiens, UniProt P08908), multi-publication
Sequence (P08908 whole entry): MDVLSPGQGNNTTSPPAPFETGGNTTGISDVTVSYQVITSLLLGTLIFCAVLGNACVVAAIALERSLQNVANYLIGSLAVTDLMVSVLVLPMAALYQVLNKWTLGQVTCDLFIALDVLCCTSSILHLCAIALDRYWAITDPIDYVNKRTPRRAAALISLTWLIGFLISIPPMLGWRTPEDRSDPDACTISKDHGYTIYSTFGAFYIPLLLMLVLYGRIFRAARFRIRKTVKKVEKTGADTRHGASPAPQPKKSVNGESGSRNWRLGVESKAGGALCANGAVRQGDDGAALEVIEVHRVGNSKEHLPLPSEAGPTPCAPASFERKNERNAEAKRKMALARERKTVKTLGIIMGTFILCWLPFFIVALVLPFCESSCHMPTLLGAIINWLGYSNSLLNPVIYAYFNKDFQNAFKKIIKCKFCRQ
// thresholds for pKi classes: bucket 1: < 7; bucket 2: ≥ 7 and < 8; bucket 3: ≥ 8

Where would `Cc1cc(OCCCCN2CCN(c3ccc([N+](=O)[O-])cc3)CC2)c2c(C)cc(=O)oc2c1` land among the classes by reported pKi?
bucket 1

Please report the category associated with `O=C1CC2(CCCC2)CC(=O)N1CCN1CCN(c2ccc(F)c(F)c2)CC1` , nothing else.
bucket 2

Consider `COc1ccc(CNC(=O)c2cc(-c3cc(Cl)cc(Cl)c3)cnc2-c2cccnc2)cc1OC` . To which pKi class does it belong?
bucket 1

Please report the category associated with `Cc1c(C(=O)N2CCc3cc4ccnc(N5CCN(C)CC5)c4cc32)cnn1-c1ccccc1` , nothing else.
bucket 3

Lab log: `COc1ccccc1N1CCN(CCCCc2cn(-c3ccc(SC)cc3)nn2)CC1` — assign pKi category
bucket 3

Categorize the following entry: `O=C(CCOCCN1CCN(c2ncccc2-c2ccc(F)cc2)CC1)NCc1ccc(C(F)(F)F)cc1`
bucket 1

Into which category would you place `O=S(=O)(NCC1CCN(CCOc2ccccc2-c2ccccc2)CC1)c1ccc(F)cc1` ?
bucket 1

Would you mind sorting `CC(=O)c1c(C)cc2oc(=O)cc(C)c2c1OCCCN1CCN(c2ccc(Cl)cc2)CC1` into the appropriate category?
bucket 3

State the class of the compound shown: COc1ccccc1N1CCN(CCC(O)c2ccc3ccccc3c2)CC1 (centres undefined)
bucket 1

Lab note: which band did Fc1ccc2[nH]cc(CCCNC3COc4ccc5ncccc5c4C3)c2c1 (stereo in doubt; (+)-5) land in?
bucket 2

Given `COc1cccc(CCc2ccccc2OCCCN2CCN(c3ncccn3)CC2)c1` , name the class its pKi places it in.
bucket 1

Determine which band this compound sits in: `O=C1COc2ccc(OC3CCN(CCOc4cccc5ccccc45)CC3)cc2N1`
bucket 3
